- measurement protocol: Stability test of QC samples
- Format: physicochemical, rat
- condition summary: Store at −20 °C for 20 days; medium concentration QC sample in rat plasma
Stability, Accuracy (RE, %) values for the compounds below.
measurement type: Stability, Accuracy (RE, %)

> print(dat)
                                   compound  reported.measurement
1  O=C(/C=C/c1ccc(O)c(O)c1)O[C@H](Cc1ccc(O)c(O)c1)C(=O)O [Rosmarinic acid]                  6.02
2  O=C(O)[C@H](O)Cc1ccc(O)c(O)c1 [Danshensu]                  0.73
3  O=C(/C=C/c1ccc(O)c2c1[C@H](C(=O)O)[C@@H](c1ccc(O)c(O)c1)O2)O[C@H](Cc1ccc(O)c(O)c1)C(=O)O [Lithospermic acid]                  0.15
